Entries annotated with measured melting point
recorded metric: melting point

>>> experimental_result("O=C1C(c2c[nH]c3ncccc23)=C(c2cn(S(=O)(=O)c3ccccc3)c3ccccc23)C(=O)N1COCc1ccccc1")
"94 to 96 °C"
>>> experimental_result("CC(C)=Cc1ccc(C(C)C(=O)O)cc1 (stereo unspecified)")
"53 to 54 °C"
>>> experimental_result("COCC(=O)Nc1cc2c(cc1C#N)C(Nc1ccc(C(=O)OC(C)(C)C)cc1)CC2 (stereo unspecified)")
"163 to 164 °C"
>>> experimental_result("Cc1oc(-c2ccco2)nc1COc1ccc(Cn2cc(CC(=O)O)c(-c3ccccc3)n2)cn1")
"135 to 136 °C"
>>> experimental_result("CCC(=O)Nc1ccc(C(=O)[C@H]2C[C@H]2C(=O)O)cc1 (relative stereo)")
"182 to 183 °C"
>>> experimental_result("COc1ccc(N2C(=O)NC(=O)C23CCCCC3)cc1")
"203 to 205 °C"

====

recorded metric: melting point

>>> experimental_result("CSc1ccc(/C=C2/C(C)=C(CCCN(O)C(N)=O)c3cc(F)ccc32)cc1")
"145 to 147 °C"
>>> experimental_result("CCc1nc(Cl)nc(N)c1C#N")
"226 °C"
>>> experimental_result("CC1(C)OC(=O)Nc2ccc(-c3ccc(Cl)cc3)cc21")
"255 to 257 °C"
>>> experimental_result("CCOC(=O)Cn1cc2c(n1)-c1ccccc1N(C(=O)c1ccc(NC(=O)c3ccc(Cl)cc3Cl)cc1)CC2")
"164 to 167 °C"
>>> experimental_result("NC(=O)c1ccc2cc(Nc3ccc(O)cc3)ccc2c1")
"260 °C"
>>> experimental_result("COc1ccc(OCCCCCBr)c(C2Sc3cc(Cl)ccc3N(C)C2=O)c1 (configuration not stated)")
"105 to 106 °C"
>>> experimental_result("COc1cc(/C=C2/C(C)=C(CC(=O)O)c3cc(F)ccc32)cc(Br)c1OC")
"164 °C"
>>> experimental_result("CC1(C)CCC(C)(C)c2cc(C(=O)C(=O)c3ccc(C(=O)O)cc3)ccc21")
"148 to 151 °C"
>>> experimental_result("Cc1c(NC(=O)CC(C)(C)C)cc2c(c1C)OC(C)(C)C2(O)c1cccc(CO)c1 (configuration not stated)")
"169 to 171 °C"
>>> experimental_result("CC(C(=O)O)c1cccc(Sc2ccccc2Cl)c1O (configuration not stated)")
"143 to 145 °C"
>>> experimental_result("CCOCc1nc2c(N)nc3ccccc3c2n1CC1CC(C)=NO1 (configuration not stated)")
"204 to 205 °C"
>>> experimental_result("CCC(C)Cc1c(-c2ccc([N+](=O)[O-])cc2Cl)c(C)nc2ncnn12 (configuration not stated)")
"158 to 162 °C"

====

Here, each record is paired with measured melting point data.
recorded metric: melting point

>>> experimental_result("CN(C)CC1=NC(O)(CCl)CS1 (centres undefined)")
"90 to 92 °C"
>>> experimental_result("COC(=O)c1oc2c(OC)cccc2c1O")
"114 °C"
>>> experimental_result("CC1=CC(=O)CC(c2cccc(Cl)c2)N1C (centres undefined)")
"82 °C"
>>> experimental_result("Cc1ccc(S(=O)(=O)N2CCCC(S(=O)(=O)c3ccc(F)cc3)C2)cc1 (centres undefined)")
"186 °C"
>>> experimental_result("Cc1ccc(OCc2sccc2S(=O)(=O)Nc2onc(C)c2Br)cc1")
"128 to 130 °C"
>>> experimental_result("O=C(Nc1ccc(N2CC(F)(F)C2)nc1)c1cc2cc(C(F)(F)F)cnc2n1Cc1cccc(F)c1")
"222 to 224 °C"
>>> experimental_result("CN(C)C(=O)c1ncccc1OC1SCC(O)C(O)C1O (centres undefined)")
"80 to 85 °C"
>>> experimental_result("COC(=O)CC1=C(C)Cc2ccc(F)cc21")
"53 °C"
>>> experimental_result("CCOCCNC(=O)COc1ccn2nc(-c3ccccc3)c(-c3ccc(=O)n(C(C)C)n3)c2c1")
"126 to 128 °C"
>>> experimental_result("COc1cc(NC(=O)C2C(=O)N(C)C(=O)N(C)C2=O)ccc1O")
"252 to 253 °C"
>>> experimental_result("CSc1c(O[C@@H]2CCC[C@H](N3C(=O)c4ccccc4C3=O)C2)ccc2[nH]ncc12 (relative stereo)")
"156 to 157 °C"
>>> experimental_result("CC(C)c1oc(C=Cc2ccccc2)nc1CO")
"91 to 92 °C"
>>> experimental_result("Cc1cc(C)cc(NC(=O)[C@@H](C)N)c1")
"134 to 136 °C"
>>> experimental_result("Cn1cncc1C(O)(c1ccc(Cl)cc1)c1ccc2c(c1)C(c1cccc(Cl)c1)SCC(=O)N2 (centres undefined)")
"210 °C"
>>> experimental_result("Cn1nc(-c2ccccc2O)oc1=O")
"160 to 162 °C"
>>> experimental_result("O=C1CCC(N2Cc3c(OCc4ccc(CN5CCC(F)(F)CC5)cc4)cccc3C2=O)C(=O)N1 (centres undefined)")
"193 to 195 °C"
>>> experimental_result("CC(C)[C@H](NC(=O)OCc1csc(N2CCCC2)n1)C(=O)N[C@@H](Cc1ccccc1)[C@@H](O)C[C@H](Cc1ccccc1)NC(=O)OCc1cncs1")
"165 to 167 °C"
>>> experimental_result("COc1nc(OC)nc(C2CC2)n1")
"68 to 70 °C"
>>> experimental_result("O=C(Nc1ccc(CCO)c(CO)c1)OCc1ccccc1")
"101 to 103 °C"
>>> experimental_result("CC(C)(C)OC(=O)Nc1cc(=O)c2cc(Oc3ccccc3)c(NS(C)(=O)=O)cc2o1")
"147 to 150 °C"
>>> experimental_result("COC(=O)c1ccc(CNC(=O)C2Cc3ccccc3N2S(=O)(=O)c2ccc(-c3cccc(C(F)(F)F)c3)cc2)c(OC)c1 (centres undefined)")
"78 to 85 °C"
>>> experimental_result("CCn1nc(-c2ccccc2)c(C(C)=O)c(Nc2ccc(O)c3ncccc23)c1=O")
"262 to 263 °C"
>>> experimental_result("OCCNc1nc(NCc2ccccc2)c2ncc(Nc3ncccn3)cc2n1")
"141 to 142 °C"
>>> experimental_result("COc1cc(OCC(=O)O)c(C)cc1SCc1ccc(-c2cccc(OC(F)(F)F)c2)cc1")
"137 °C"
>>> experimental_result("CCc1cccc(CC)c1N(C=O)CC(=O)O")
"139 to 141 °C"
>>> experimental_result("CS(=O)(=O)Nn1c(=O)[nH]c2cc([N+](=O)[O-])c(N3CCOCC3)cc2c1=O")
"> 260 °C"
>>> experimental_result("CCN(c1ccc(SC)cc1[N+](=O)[O-])S(=O)(=O)c1ccc(C)cc1")
"135 to 136 °C"
>>> experimental_result("CCc1nn2ccc3oc(C)cc3c2c1CC#N")
"156 to 157 °C"
>>> experimental_result("CC(C(N)=O)c1cccc2c1Oc1ccccc1CC2=O (centres undefined)")
"177 to 178 °C"

====

recorded metric: melting point

>>> experimental_result("O=C1Nc2cc(CN3CCN(c4ccc(Cl)cc4)CC3)cnc2N2CCC[C@@H]12")
"265 to 268 °C"
>>> experimental_result("Cc1cc(OCc2ccccc2)cc(C)c1NC(=O)CCl")
"165 °C"
>>> experimental_result("O=C1COc2cc(Sc3ccc(O)cc3)ccc2N1")
"156 to 157 °C"
>>> experimental_result("CC(NC(=O)OCc1ccccc1)C(=O)N1CC(=O)NC1(C)C (configuration not stated)")
"170 to 171 °C"
>>> experimental_result("Cc1oc(-c2ccccc2)nc1CC=Cc1ccc(CCCC2OC(=O)NC2=O)cc1 (configuration not stated)")
"136 to 137 °C"
>>> experimental_result("COC(=O)c1cc(C(=O)O)nn1C")
"175 °C"
>>> experimental_result("c1ccc2c(c1)[nH]c1c2nc2ncccn21")
"96 to 98 °C"

====

Reported melting point values for a set of compounds
recorded metric: melting point

>>> experimental_result("Cc1cc(C)c(Cc2nc(C)nc(O)c2C)c(C)c1")
"260 to 262 °C"
>>> experimental_result("Cn1c(COc2ccc(CC3SC(=O)NC3=O)cc2)cc2ccccc21 (stereo unspecified)")
"174 to 176 °C"
>>> experimental_result("CN1CCCc2ccc(O)cc21")
"97 to 98 °C"
>>> experimental_result("OCCNc1cc(Nc2ccc(N3CCOCC3)cc2)ncn1")
"204 to 207 °C"
>>> experimental_result("CC(=O)c1ccc(C(=O)N2Cc3cccn3Cc3ccccc32)c(Cl)c1")
"98 to 100 °C"
>>> experimental_result("CC(C)c1cccc(COCCCn2ccnc2)c1NC(=O)CC1c2ccccc2Oc2ccccc21")
"131 to 132 °C"
>>> experimental_result("O=C(O)CN1C(=O)C=CC1=O")
"110 °C"
>>> experimental_result("COC1CCC(=O)N1S(=O)(=O)C=Cc1ccccc1 (stereo unspecified)")
"98 to 99 °C"
>>> experimental_result("Cn1c(COc2ccc(CC3SC(=O)NC3=O)cc2)nc2ccc(Oc3ccc(NC(=O)Nc4ccccc4)cc3)cc21 (stereo unspecified)")
"164 to 168 °C"
>>> experimental_result("CN1C2CCC1CN(C(=O)c1ccco1)C2")
"106 °C"
>>> experimental_result("O=C(Nc1cccc(-c2ccnc3c(C(=O)c4cccs4)cnn23)c1)c1ccc(Cl)cc1Cl")
"132 to 134 °C"
